Target: T1, His-MIF (His-tag/T7 gene 10 leader/Xpress-MIF fusion) (UniProt P14174 P14174:1-115)
T1 chain: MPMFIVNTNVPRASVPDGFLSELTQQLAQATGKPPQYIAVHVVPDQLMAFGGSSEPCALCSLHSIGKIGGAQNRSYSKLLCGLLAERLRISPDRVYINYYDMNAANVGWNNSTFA
Test: SPR; 10 mM HEPES, 150 mM NaCl, 0.1 mM Mg acetate, 0.01% Tween 20, pH 7.2; RNA immobilised
Details: MIF 115 aa; ATGen; label: biotin-T20 hybridised to tail; stem-loop
metric: Kd (pM)
State just the number; it will be interpreted in pM.

Query (binder): shot47 (ssRNA, 3' A20 tail for capture) RNA: GGGACGCUCACGUACGCUCACGUCCGAUCGAUACUGGUAUAUUGGCGCCUUCGUGGAAUGUCAGUGCCUGGACGUGCAGU ; field requested: Kd
3.78
